Target system: T1, human OX40 expressed on cells (human, UniProt P43489 29-277)
T1 sequence: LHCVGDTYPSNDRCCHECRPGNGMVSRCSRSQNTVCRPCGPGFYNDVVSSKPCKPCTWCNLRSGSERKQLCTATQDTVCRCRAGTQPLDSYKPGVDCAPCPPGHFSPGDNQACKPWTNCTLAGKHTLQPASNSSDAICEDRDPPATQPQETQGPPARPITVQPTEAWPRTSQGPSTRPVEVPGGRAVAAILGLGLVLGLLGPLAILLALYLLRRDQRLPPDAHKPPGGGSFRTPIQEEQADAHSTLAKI
Assay method text: cell-based or functional assay
Answer each item with its documented EC50 Without Cross-linker (nM), NF-κB signaling.

[[record]]
binder = "119-122 (antibody, human IgG1, V domains shown) VH: EVQLVESGGGLVQPGGSLRLSCAASEYEFPSHDMSWVRQAPGKGLELVAAINSDGGSTYYPDTMERRFTISRDNAKNSLYLQMNSLRAEDTAVYYCARHYDDYYAWFAYWGQGTMVTVSS VL: EIVLTQSPATLSLSPGERATLSCRASKSVSTSGYSYMHWYQQKPGQAPRLLIYLASNLESGVPARFSGSGSGTDFTLTISSLEPEDFAVYYCQHSRELPLTFGGGTKVEIK"
assay_result = "> 100 µg/mL"

[[record]]
binder = "106-222 (antibody, human IgG1, V domains shown, 2013/0280275) VH: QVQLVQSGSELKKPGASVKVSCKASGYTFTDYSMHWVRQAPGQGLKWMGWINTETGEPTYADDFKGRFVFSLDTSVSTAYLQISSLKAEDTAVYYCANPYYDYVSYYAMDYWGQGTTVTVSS VL: DIQMTQSPSSLSASVGDRVTITCKASQDVSTAVAWYQQKPGKAPKLLIYSASYLYTGVPSRFSGSGSGTDFTFTISSLQPEDIATYYCQQHYSTPRTFGQGTKLEIK"
assay_result = "> 100 µg/mL"


Dear reader, for each entry below, please note its EC50 Without Cross-linker (nM), NF-κB signaling.
1. 18D8 (antibody, human IgG1, V domains shown, also called literature anti-OX40 antibody 18D8) VH: EVQLVESGGGLVQPGRLSRLSCAASGFTFDDYAMHWVRQAPGKGLEWVSGISWNSGSIGYADSVKGRFTISRENAKNSLYLQMNSLRAEDTALYYCAKDQSTADYYFYYGMDVWGQGTTVTVSS VL: EIVVTQSPATLSLSPGERATLSCRASQSVSSYLAWYQQKPGQAPRLLIYDASNRATGIPARFSGSGSGTDFTLTISSLEPEDFAVYYCQQRSNWPTFGQGTKVEIK
2. Hu3738 (antibody, V domains shown, Humanized antibody; also called exemplary anti-OX40 antibody Hu3738; Hu3738 VH.1b / Hu3738 VL.1) VH: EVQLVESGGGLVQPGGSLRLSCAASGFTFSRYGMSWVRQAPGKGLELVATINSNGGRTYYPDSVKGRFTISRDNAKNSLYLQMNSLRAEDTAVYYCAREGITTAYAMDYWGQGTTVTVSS VL: DIVMTQSPDSLAVSLGERATINCKASQSVDYDGDSYMHWYQQKPGQPPKLLIYAASILESGVPDRFSGSGSGTDFTLTISSLQAEDVAVYYCQQSNEDPRTFGGGTKVEIKR

["> 100 µg/mL", "20 nM"]
